Target: human Cav2.2 (Homo sapiens)
Sequence (Q00975 whole entry): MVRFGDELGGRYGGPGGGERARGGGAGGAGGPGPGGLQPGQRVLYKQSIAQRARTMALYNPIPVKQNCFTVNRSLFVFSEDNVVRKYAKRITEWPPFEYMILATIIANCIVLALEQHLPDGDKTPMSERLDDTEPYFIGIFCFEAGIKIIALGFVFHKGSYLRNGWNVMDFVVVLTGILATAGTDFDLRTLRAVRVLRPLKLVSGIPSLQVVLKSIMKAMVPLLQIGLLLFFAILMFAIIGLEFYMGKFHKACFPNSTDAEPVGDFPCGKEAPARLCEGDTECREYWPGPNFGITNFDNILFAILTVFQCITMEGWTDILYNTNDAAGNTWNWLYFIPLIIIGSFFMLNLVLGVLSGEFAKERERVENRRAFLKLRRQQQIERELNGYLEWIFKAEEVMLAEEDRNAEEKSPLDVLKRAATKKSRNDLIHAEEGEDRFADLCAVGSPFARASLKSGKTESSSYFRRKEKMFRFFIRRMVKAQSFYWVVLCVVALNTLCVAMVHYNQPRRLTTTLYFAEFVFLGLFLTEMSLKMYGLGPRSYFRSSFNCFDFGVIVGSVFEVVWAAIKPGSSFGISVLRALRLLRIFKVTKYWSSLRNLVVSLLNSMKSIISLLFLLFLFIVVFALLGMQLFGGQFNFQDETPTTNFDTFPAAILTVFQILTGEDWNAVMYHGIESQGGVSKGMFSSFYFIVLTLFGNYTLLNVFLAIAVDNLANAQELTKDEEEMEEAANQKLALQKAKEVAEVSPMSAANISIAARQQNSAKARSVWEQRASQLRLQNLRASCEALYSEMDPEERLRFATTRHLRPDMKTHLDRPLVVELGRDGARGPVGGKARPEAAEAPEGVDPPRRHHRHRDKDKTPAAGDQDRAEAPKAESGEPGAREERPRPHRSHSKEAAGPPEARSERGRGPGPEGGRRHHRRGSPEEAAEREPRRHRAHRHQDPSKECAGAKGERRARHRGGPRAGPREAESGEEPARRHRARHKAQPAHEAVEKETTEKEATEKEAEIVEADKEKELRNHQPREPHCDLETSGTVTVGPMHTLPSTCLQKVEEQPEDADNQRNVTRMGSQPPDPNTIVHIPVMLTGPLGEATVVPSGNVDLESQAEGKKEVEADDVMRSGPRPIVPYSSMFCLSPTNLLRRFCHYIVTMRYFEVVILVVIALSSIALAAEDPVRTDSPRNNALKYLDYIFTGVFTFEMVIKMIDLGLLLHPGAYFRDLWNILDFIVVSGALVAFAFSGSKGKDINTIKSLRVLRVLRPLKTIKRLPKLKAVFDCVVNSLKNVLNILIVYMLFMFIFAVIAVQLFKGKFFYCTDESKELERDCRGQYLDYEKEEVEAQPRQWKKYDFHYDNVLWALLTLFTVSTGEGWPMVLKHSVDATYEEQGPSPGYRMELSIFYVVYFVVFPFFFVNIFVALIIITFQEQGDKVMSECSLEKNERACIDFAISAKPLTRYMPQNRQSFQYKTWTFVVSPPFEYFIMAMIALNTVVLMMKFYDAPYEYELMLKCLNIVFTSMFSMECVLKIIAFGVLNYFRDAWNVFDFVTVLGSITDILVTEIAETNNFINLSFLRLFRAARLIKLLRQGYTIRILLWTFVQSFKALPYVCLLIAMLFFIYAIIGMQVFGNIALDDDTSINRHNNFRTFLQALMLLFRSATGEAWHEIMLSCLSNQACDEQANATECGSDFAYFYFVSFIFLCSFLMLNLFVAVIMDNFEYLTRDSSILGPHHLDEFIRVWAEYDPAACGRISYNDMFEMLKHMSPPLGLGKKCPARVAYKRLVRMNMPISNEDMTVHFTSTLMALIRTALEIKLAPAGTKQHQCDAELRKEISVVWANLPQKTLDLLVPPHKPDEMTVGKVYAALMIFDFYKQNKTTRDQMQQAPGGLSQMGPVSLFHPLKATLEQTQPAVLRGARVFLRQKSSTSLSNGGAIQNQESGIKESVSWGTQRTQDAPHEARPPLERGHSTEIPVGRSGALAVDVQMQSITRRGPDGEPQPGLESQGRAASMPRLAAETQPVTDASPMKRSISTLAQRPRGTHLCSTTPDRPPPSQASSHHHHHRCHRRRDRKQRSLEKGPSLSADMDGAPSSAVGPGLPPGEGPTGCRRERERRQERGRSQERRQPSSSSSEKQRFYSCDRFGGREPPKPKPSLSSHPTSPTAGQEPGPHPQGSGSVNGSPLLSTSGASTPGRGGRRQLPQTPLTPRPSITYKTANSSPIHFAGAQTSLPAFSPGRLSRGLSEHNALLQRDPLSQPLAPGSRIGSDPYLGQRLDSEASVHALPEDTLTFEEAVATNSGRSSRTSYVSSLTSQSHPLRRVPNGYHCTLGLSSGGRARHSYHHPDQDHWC
Sequence (P54289 25-946 partner limits assumed): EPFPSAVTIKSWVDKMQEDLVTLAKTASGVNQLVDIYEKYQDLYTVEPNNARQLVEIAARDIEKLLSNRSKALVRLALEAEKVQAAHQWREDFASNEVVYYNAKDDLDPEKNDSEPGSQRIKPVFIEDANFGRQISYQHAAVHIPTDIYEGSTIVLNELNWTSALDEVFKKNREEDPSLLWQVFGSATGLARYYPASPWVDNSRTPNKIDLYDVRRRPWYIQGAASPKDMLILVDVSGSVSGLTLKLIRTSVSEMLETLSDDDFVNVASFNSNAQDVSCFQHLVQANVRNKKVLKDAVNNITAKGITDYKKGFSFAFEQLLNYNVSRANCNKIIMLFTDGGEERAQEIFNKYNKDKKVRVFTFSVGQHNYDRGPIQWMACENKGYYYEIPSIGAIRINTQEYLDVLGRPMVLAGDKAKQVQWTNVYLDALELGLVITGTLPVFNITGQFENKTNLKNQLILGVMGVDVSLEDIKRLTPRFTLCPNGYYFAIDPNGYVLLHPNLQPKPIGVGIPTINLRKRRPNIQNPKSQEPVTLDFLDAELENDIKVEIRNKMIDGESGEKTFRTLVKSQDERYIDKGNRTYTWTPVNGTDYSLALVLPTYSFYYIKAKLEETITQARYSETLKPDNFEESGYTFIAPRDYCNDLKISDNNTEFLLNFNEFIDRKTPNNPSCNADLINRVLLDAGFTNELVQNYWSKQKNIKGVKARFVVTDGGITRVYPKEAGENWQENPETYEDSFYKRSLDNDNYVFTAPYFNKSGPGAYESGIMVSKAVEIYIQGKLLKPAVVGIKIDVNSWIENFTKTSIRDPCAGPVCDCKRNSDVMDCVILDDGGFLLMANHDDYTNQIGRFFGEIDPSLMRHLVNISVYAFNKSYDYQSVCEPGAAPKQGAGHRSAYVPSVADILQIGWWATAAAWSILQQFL
Sequence (P54289 947-1103 partner limits assumed): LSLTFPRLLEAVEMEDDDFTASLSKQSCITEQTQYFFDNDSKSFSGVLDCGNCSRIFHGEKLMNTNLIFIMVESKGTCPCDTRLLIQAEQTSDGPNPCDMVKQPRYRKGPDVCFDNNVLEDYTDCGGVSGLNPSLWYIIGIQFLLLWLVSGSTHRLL
Sequence (P54284 whole entry partner): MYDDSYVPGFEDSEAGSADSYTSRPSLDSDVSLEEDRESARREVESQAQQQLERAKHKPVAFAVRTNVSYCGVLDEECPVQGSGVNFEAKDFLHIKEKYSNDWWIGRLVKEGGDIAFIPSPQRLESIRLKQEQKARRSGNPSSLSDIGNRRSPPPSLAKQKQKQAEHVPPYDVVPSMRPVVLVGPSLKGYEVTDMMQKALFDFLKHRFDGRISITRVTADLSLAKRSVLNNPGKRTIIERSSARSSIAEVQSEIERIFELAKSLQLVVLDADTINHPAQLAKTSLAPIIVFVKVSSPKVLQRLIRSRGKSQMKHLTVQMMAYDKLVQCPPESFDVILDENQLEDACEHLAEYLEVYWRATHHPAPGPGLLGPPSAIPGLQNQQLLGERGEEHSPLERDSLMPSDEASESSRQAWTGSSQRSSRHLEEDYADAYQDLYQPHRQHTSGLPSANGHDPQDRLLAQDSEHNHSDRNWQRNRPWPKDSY
Test: Assessment of calcium channel activity using FLIPR (Ca2+ influx in IMR32 cells)
Assay type: cell-based
Conditions: 60 minute pre-incubation with compound, 2 μM nifedipine, depolarized with 80 mM KCl
readoutName: IC50 (nM)

Take a look at these entries with their results.
CN(C(=O)OC(C)(C)C)[C@@H](CC(C)(C)C)C(=O)N[C@@H]1CC[C@H]2CN(S(=O)(=O)c3cccc(C(F)(F)F)c3)C[C@H]21 [Example 338] :: 230
O=C(N[C@H]1CC[C@H]2CN(Cc3cccc(C(F)(F)F)c3)C[C@H]21)C(C1CCCCC1)C1CCCCC1 [Example 54] :: 500

[A] CN[C@@H](CC(C)C)C(=O)N[C@@H]1CC[C@H]2CN(S(=O)(=O)c3cc(F)cc(F)c3)C[C@H]21 [Example 446]
[B] O=S(=O)(c1cccc(C(F)(F)F)c1)N1C[C@H]2CC[C@H](NCc3ccc(F)cc3)[C@H]2C1 [Example 286]
Input line: API: POST /compare with A and B ; response names the item with higher IC50. # answer = label of selected item
Output line: A

[A] CC(C)N[C@@H](CC(C)(C)C)C(=O)N1C[C@H]2CC[C@H](NC(=O)C(c3ccc(F)cc3)c3ccc(F)cc3)[C@H]2C1 [Example 492]
[B] CC(C)C[C@@H](C(=O)N[C@H]1CC[C@H]2CN(Cc3cccc(C(F)(F)F)c3)C[C@H]21)N(C)C(=O)OC(C)(C)C [Example 153]
[C] CC(C)N[C@@H](CC(C)(C)C)C(=O)N[C@H]1CC[C@@H]2CN(c3ccc(C(F)(F)F)cn3)C[C@@H]21 [Example 490]
Input line: Sort ascending by IC50. Respond with the label ranking, as requested.
Output line: B, A, C
